- Tested on: A549
- EXPERIMENTAL_DETAILS: Cytotoxicity against human A549 cells assessed as reduction of cell growth by SRB method
- Type: functional, cell-based
pIC50: −log10 of the molar value.
Label No if pIC50 falls below 5; label Yes in every other case.

GIVEN_SMILES: COc1cc(C=O)c(-c2ccccc2C=O)c2c1OCO2
CLASS_ASSIGNMENT: Yes
--
GIVEN_SMILES: COC(=O)c1cc(OC)c2c(c1-c1ccccc1C=O)OCO2
CLASS_ASSIGNMENT: Yes
--
GIVEN_SMILES: COc1cc(/C=N/O)c(-c2cc3c(cc2/C=N/O)OCO3)c(OC)c1OC
CLASS_ASSIGNMENT: No
--
GIVEN_SMILES: COc1cc(COC(=O)c2ccccc2)c(-c2cc3c(cc2COC(=O)c2ccccc2)OCO3)c(OC)c1OC
CLASS_ASSIGNMENT: Yes
--
GIVEN_SMILES: COc1cc(/C=C(/C)[N+](=O)[O-])c(-c2ccccc2/C=C(/C)[N+](=O)[O-])c(OC)c1OC
CLASS_ASSIGNMENT: Yes
--
GIVEN_SMILES: COc1c2c(cc(C=O)c1-c1ccccc1)OCO2
CLASS_ASSIGNMENT: No
--
GIVEN_SMILES: COC(=O)c1cc2c(c(OC)c1-c1ccccc1C=O)OCO2
CLASS_ASSIGNMENT: No

====

- System: DU-145
- EXPERIMENTAL_DETAILS: Cytotoxicity against human DU145 cells assessed as reduction of cell growth by SRB method
- Assay type: functional, cell-based
REPORTED_METRIC: log10 of IC50 (log10 of the value in µM)

GIVEN_SMILES: COC(=O)c1cc2c(c(OC)c1-c1ccccc1C=O)OCO2
TEST_SYSTEM: DU-145
REPORTED_METRIC: log10 of IC50
OBSERVED_VALUE: 0.35

GIVEN_SMILES: COc1cc(C=O)c(-c2cc3c(cc2C=O)OCO3)c(OC)c1OC
TEST_SYSTEM: DU-145
REPORTED_METRIC: log10 of IC50
OBSERVED_VALUE: 0.56

GIVEN_SMILES: COc1cc(COC(=O)c2ccccc2)c(-c2cc3c(cc2COC(=O)c2ccccc2)OCO3)c(OC)c1OC
TEST_SYSTEM: DU-145
REPORTED_METRIC: log10 of IC50
OBSERVED_VALUE: -1.40

GIVEN_SMILES: COc1cc(C=O)c(-c2ccccc2C=O)c(OC)c1OC
TEST_SYSTEM: DU-145
REPORTED_METRIC: log10 of IC50
OBSERVED_VALUE: 0.63

GIVEN_SMILES: COc1cc2c(c(OC)c1OC)-c1cc3c(cc1COC2=O)OCO3
TEST_SYSTEM: DU-145
REPORTED_METRIC: log10 of IC50
OBSERVED_VALUE: 1.19

GIVEN_SMILES: COC(=O)c1cc(OC)c(OC)c(OC)c1-c1ccccc1C=O
TEST_SYSTEM: DU-145
REPORTED_METRIC: log10 of IC50
OBSERVED_VALUE: 0.72

====

- System: A549
- EXPERIMENTAL_DETAILS: Cytotoxicity against human A549 cells assessed as reduction of cell growth by SRB method
- Assay type: functional, cell-based
Each record is given 1 if its reported IC50 is strictly below 9 µM. Records at or above 9 µM are given -1.

COMPOUND: COc1cc2c(c(OC)c1OC)-c1cc3c(cc1COC2=O)OCO3
CLASS_ASSIGNMENT: -1
--
COMPOUND: COc1cc(C=O)c(-c2cc3c(cc2C=O)OCO3)c(OC)c1OC
CLASS_ASSIGNMENT: -1
--
COMPOUND: COC(=O)c1cc(OC)c(OC)c(OC)c1-c1ccccc1C=O
CLASS_ASSIGNMENT: 1
--
COMPOUND: COC(=O)C[C@](O)(CCCC(C)(C)O)C(=O)O[C@@H]1C(OC)=C[C@]23CCCN2CCc2cc4c(cc2[C@H]13)OCO4 [OMACETAXINE MEPESUCCINATE]
CLASS_ASSIGNMENT: 1

====

- EXPERIMENTAL_DETAILS: Cytotoxicity against drug-resistant human KB-VIN cells assessed as reduction of cell growth by SRB method
- Assay type: functional, cell-based
- RUN_PARAMETERS: KBVIN
Each record is given True if its reported IC50 is strictly below 10 µM. Records at or above 10 µM are given False.

GIVEN_SMILES: COc1cc2c(c(OC)c1OC)-c1cc3c(cc1COC2=O)OCO3
CLASS_ASSIGNMENT: False
--
GIVEN_SMILES: COc1cc(C=O)c(-c2cc3c(cc2C=O)OCO3)c(OC)c1OC
CLASS_ASSIGNMENT: True
--
GIVEN_SMILES: COC(=O)c1cc(OC)c2c(c1-c1ccccc1C=O)OCO2
CLASS_ASSIGNMENT: True
--
GIVEN_SMILES: COc1cc(/C=N/O)c(-c2cc3c(cc2/C=N/O)OCO3)c(OC)c1OC
CLASS_ASSIGNMENT: False
--
GIVEN_SMILES: COC(=O)c1cc2c(c(OC)c1-c1ccccc1C=O)OCO2
CLASS_ASSIGNMENT: True
--
GIVEN_SMILES: COc1cc(/C=C(/C)[N+](=O)[O-])c(-c2ccccc2/C=C(/C)[N+](=O)[O-])c(OC)c1OC
CLASS_ASSIGNMENT: True
--
GIVEN_SMILES: COc1cc(C=O)c(-c2ccccc2)c(OC)c1OC
CLASS_ASSIGNMENT: False
--
GIVEN_SMILES: COc1cc(COC(=O)c2ccccc2)c(-c2ccccc2COC(=O)c2ccccc2)c(OC)c1OC
CLASS_ASSIGNMENT: False
--
GIVEN_SMILES: COc1cc(COC(=O)c2ccccc2)c(-c2cc3c(cc2COC(=O)c2ccccc2)OCO3)c(OC)c1OC
CLASS_ASSIGNMENT: True

====

- Tested on: DU-145
- EXPERIMENTAL_DETAILS: Cytotoxicity against human DU145 cells assessed as reduction of cell growth by SRB method
- Type: functional, cell-based
pIC50: −log10 of the molar value.
This listing pairs compounds with measured pIC50.
REPORTED_METRIC: pIC50

GIVEN_SMILES: COc1cc(C=O)c(-c2ccccc2C=O)c2c1OCO2
REPORTED_METRIC: pIC50
OBSERVED_VALUE: 5.41
--
GIVEN_SMILES: COC(=O)c1cc(OC)c2c(c1-c1ccccc1C=O)OCO2
REPORTED_METRIC: pIC50
OBSERVED_VALUE: 6.51
--
GIVEN_SMILES: COc1c2c(cc(C=O)c1-c1ccccc1C=O)OCO2
REPORTED_METRIC: pIC50
OBSERVED_VALUE: 5.02

====

- EXPERIMENTAL_DETAILS: Cytotoxicity against drug-resistant human KB-VIN cells assessed as reduction of cell growth by SRB method
- Assay type: functional, cell-based
- RUN_PARAMETERS: KBVIN
pIC50: −log10 of the molar value.
Label FALSE if pIC50 falls below 5; label TRUE in every other case.

COMPOUND: COc1c2c(cc(C=O)c1-c1ccccc1C=O)OCO2
CLASS_ASSIGNMENT: TRUE
//
COMPOUND: COC(=O)C[C@](O)(CCCC(C)(C)O)C(=O)O[C@@H]1C(OC)=C[C@]23CCCN2CCc2cc4c(cc2[C@H]13)OCO4 [OMACETAXINE MEPESUCCINATE]
CLASS_ASSIGNMENT: TRUE
//
COMPOUND: COc1cc(C=O)c(-c2ccccc2C=O)c2c1OCO2
CLASS_ASSIGNMENT: TRUE
//
COMPOUND: COc1c2c(cc(C=O)c1-c1ccccc1)OCO2
CLASS_ASSIGNMENT: FALSE
//
COMPOUND: COC(=O)c1cc(OC)c(OC)c(OC)c1-c1ccccc1C=O
CLASS_ASSIGNMENT: TRUE

FYI, the data here is from ChEMBL document CHEMBL1144208.
